TGT: Glutamate receptor ionotropic, AMPA (Rattus norvegicus, UniProt P19490+P19491+P19492+P19493)
METHOD SUMMARY: Inhibition of 40 uM AMPA induced depolarizations in a rat cortical slice.
Assay type: functional
compounds and their reported IC50
Give the value in µM but do not write µM after it.

Below, each entry is followed by its recorded IC50 result.
INSERT INTO measurements (compound, assay_endpoint, units_label, val) VALUES
  ('O=C(O)C1CC2CC(c3ccc(-c4nn[nH]n4)cc3)CCC2CN1 (single isomer, unassigned; (+))', 'IC50', 'µM', 58.7),
  ('O=C(O)C1CC2CC(CCc3nnn[nH]3)CCC2CN1 (single isomer, unassigned; (-))', 'IC50', 'µM', 1.8);

Let us move to another entry and its IC50.
Quick one: IC50 of "O=C(O)c1cccc([C@H]2CC[C@H]3CN[C@H](C(=O)O)C[C@H]3C2)c1" ?
15.5

meta.source: ChEMBL document CHEMBL1129921
